# subject.of.test: MAO-B (Homo sapiens, UniProt P27338)
# Construct: purchased Sigma-Aldrich
# Sequence (P27338 whole entry): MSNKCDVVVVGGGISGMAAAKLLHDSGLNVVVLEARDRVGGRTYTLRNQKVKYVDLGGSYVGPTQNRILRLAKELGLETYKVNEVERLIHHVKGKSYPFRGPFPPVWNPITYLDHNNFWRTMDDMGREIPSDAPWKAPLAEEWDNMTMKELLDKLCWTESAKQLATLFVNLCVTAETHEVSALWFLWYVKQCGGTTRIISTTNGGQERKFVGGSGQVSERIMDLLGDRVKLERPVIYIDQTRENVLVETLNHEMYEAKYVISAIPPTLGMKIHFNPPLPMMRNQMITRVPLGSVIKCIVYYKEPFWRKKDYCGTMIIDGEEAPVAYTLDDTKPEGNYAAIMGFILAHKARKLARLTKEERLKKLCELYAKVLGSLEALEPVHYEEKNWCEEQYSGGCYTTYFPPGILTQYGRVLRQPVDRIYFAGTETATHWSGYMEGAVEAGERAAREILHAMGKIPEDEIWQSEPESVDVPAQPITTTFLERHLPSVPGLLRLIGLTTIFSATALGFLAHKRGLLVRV
# procedure.details: continuous spectrophotometric MAO-B inhibition assay
# Type: biochemical
# measurement.parameters: dilution series 50 μM to 1 nM, duplicates; read-out: MAO-B inhibition IC50
pIC50: −log10 of the molar value.
Output YES for pIC50 not less than 6; output NO otherwise.

- record.smiles: "COc1ccc2oc(=O)c(-c3ccc(N(C)C)cc3)cc2c1"
  answer.label: "YES"
- record.smiles: "Cc1ccc2oc(=O)c(-c3ccc(C(F)(F)F)cc3)cc2c1"
  answer.label: "YES"
- record.smiles: "COc1ccc(-c2cc3ccc(OC(C)=O)cc3oc2=O)cc1"
  answer.label: "NO"
- record.smiles: "COc1ccc(-c2cc3cc(OC(C)=O)ccc3oc2=O)cc1"
  answer.label: "NO"

====

# subject.of.test: recombinant human HSD1 (Homo sapiens, UniProt P14061)
# Construct: made in house; host or cells: Sf9 insect cells
# Sequence (P14061 1-328): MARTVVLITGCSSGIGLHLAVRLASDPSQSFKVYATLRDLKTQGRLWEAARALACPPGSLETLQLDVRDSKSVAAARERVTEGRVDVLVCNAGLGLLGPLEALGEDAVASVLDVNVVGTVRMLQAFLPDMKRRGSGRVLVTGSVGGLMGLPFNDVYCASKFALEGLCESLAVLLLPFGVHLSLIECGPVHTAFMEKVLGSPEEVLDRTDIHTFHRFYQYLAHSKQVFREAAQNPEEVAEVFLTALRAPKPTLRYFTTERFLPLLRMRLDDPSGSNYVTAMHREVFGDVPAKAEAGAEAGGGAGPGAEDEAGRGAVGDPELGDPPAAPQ
# procedure.details: HSD1 inhibition by HPLC with tritium labeled estrone/estradiol
# Assay type: biochemical
# measurement.parameters: 1 μM
Output rule met for inhibition at 1 µM not less than 1%; output rule not met otherwise.

- record.smiles: "CC(=O)Oc1ccc(-c2cc3cc(Cl)cc(Cl)c3oc2=O)cc1F"
  answer.label: "rule not met"
- record.smiles: "COc1ccc2oc(=O)c(-c3ccc(C(F)(F)F)cc3)cc2c1"
  answer.label: "rule not met"
- record.smiles: "COc1ccc2cc(-c3ccc(O)c(F)c3)c(=O)oc2c1"
  answer.label: "rule met"
- record.smiles: "COc1ccc(-c2cc3cc(OC)ccc3oc2=O)cc1"
  answer.label: "rule not met"
- record.smiles: "COc1ccc2oc(=O)c(-c3ccc(OC(F)(F)F)cc3)cc2c1"
  answer.label: "rule not met"
- record.smiles: "CC(=O)Oc1ccc2cc(-c3ccc(OC(F)(F)F)cc3)c(=O)oc2c1"
  answer.label: "rule not met"
- record.smiles: "CN(C)c1ccc(-c2cc3ccc(O)cc3oc2=O)cc1"
  answer.label: "rule met"
- record.smiles: "COc1cccc(-c2cc3cc(OC)ccc3oc2=O)c1"
  answer.label: "rule not met"
- record.smiles: "CC(=O)Oc1ccc2cc(-c3ccc(N(C)C)cc3)c(=O)oc2c1"
  answer.label: "rule met"
- record.smiles: "COc1ccc2cc(-c3cc(F)c(F)cc3F)c(=O)oc2c1"
  answer.label: "rule met"
- record.smiles: "Cc1ccc2oc(=O)c(-c3ccc(C(F)(F)F)cc3)cc2c1"
  answer.label: "rule not met"
- record.smiles: "COc1ccc2oc(=O)c(-c3ccc(F)cc3)cc2c1"
  answer.label: "rule not met"
- record.smiles: "O=c1oc2ccc(O)cc2cc1-c1ccc(F)cc1"
  answer.label: "rule met"
- record.smiles: "COc1cccc(-c2cc3ccccc3oc2=O)c1"
  answer.label: "rule met"
- record.smiles: "COc1ccc2oc(=O)c(-c3cc(F)c(F)cc3F)cc2c1"
  answer.label: "rule met"
- record.smiles: "COc1ccc2oc(=O)c(-c3ccc(O)c(F)c3)cc2c1"
  answer.label: "rule met"
- record.smiles: "COc1ccc(-c2cc3ccc(O)cc3oc2=O)cc1"
  answer.label: "rule met"
- record.smiles: "COc1ccc(-c2cc3ccc(OC(C)=O)cc3oc2=O)cc1"
  answer.label: "rule not met"
- record.smiles: "COc1cc(OC)cc(-c2cc3cc(OC)ccc3oc2=O)c1"
  answer.label: "rule not met"
- record.smiles: "COc1ccc2cc(-c3ccc(OC(C)=O)c(F)c3)c(=O)oc2c1"
  answer.label: "rule met"

====

# subject.of.test: MAO-B (Homo sapiens, UniProt P27338)
# Construct: purchased Sigma-Aldrich
# procedure.details: continuous spectrophotometric MAO-B inhibition assay
# Type: biochemical
# measurement.parameters: 10 µM, 2h
# Method: […] The protocol for continuous spectrophotometric assay (Holt et al., [1997]) was followed in the activity measurements. […] The background signal was measured using multilabel reader (Victor^TM X4, 2030 Multilabel Reader, PerkinElmer, Waltham, MA, USA) at A490 before reaching the total 200 μl volume by adding 20 μl of tyramine to final concentration of 0.5 mM on the plate. […] After adding the substrate, the plates were measured 300 times every 15 s using 1 s exposure time. […]

- record.smiles: "O=c1oc2cc(O)cc(O)c2cc1-c1ccc(O)cc1"
  value.unit: "%"
  MAO-B inhibition %: 21.38
- record.smiles: "COc1ccc(-c2cc3cc(Cl)cc(Cl)c3oc2=O)cc1"
  value.unit: "%"
  MAO-B inhibition %: 47.77
- record.smiles: "O=c1oc2ccc(O)cc2cc1-c1cccc(O)c1"
  value.unit: "%"
  MAO-B inhibition %: 27.16
- record.smiles: "COc1ccc(-c2cc3ccccc3oc2=O)cc1"
  value.unit: "%"
  MAO-B inhibition %: 41.12
- record.smiles: "O=c1oc2cc(O)ccc2cc1-c1ccc(O)cc1"
  value.unit: "%"
  MAO-B inhibition %: 52.68
- record.smiles: "COc1ccc2cc(-c3cccc(OCc4ccccc4)c3)c(=O)oc2c1"
  value.unit: "%"
  MAO-B inhibition %: 6.66
- record.smiles: "O=c1oc2cc(O)ccc2cc1-c1ccccc1"
  value.unit: "%"
  MAO-B inhibition %: 23.82
- record.smiles: "CC(=O)Oc1ccc2cc(-c3ccccc3)c(=O)oc2c1"
  value.unit: "%"
  MAO-B inhibition %: 0.00
- record.smiles: "O=c1oc2ccccc2cc1-c1cccc(O)c1"
  value.unit: "%"
  MAO-B inhibition %: 49.60
- record.smiles: "COc1ccc(-c2cc3cccc(O)c3oc2=O)cc1"
  value.unit: "%"
  MAO-B inhibition %: 47.64

====

# subject.of.test: MAO-B (Homo sapiens, UniProt P27338)
# Construct: purchased Sigma-Aldrich
# procedure.details: MAO-B inhibition of prior 3-phenylcoumarins (literature data)
# Format: biochemical
# measurement.parameters: LiPE = pIC50 - QPlogPo/w, literature IC50
Here, each record is paired with measured LiPE data.

- record.smiles: "Cc1cccc(-c2cc3cc(C)ccc3oc2=O)c1"
  subject.of.test: "MAO-B (Homo sapiens, UniProt P27338)"
  LiPE: 4.09
- record.smiles: "Cc1ccc2oc(=O)c(-c3ccccc3)cc2c1"
  subject.of.test: "MAO-B (Homo sapiens, UniProt P27338)"
  LiPE: 3.08
- record.smiles: "COc1ccc(-c2cc3cc(C)ccc3oc2=O)cc1"
  subject.of.test: "MAO-B (Homo sapiens, UniProt P27338)"
  LiPE: 4.41
- record.smiles: "COc1cc(Br)cc2cc(-c3ccccc3)c(=O)oc12"
  subject.of.test: "MAO-B (Homo sapiens, UniProt P27338)"
  LiPE: 3.35
- record.smiles: "O=c1oc2c(O)cc(Br)cc2cc1-c1ccccc1"
  subject.of.test: "MAO-B (Homo sapiens, UniProt P27338)"
  LiPE: 1.45
- record.smiles: "COc1cc(-c2cc3cc(C)cc(Br)c3oc2=O)cc(OC)c1OC"
  subject.of.test: "MAO-B (Homo sapiens, UniProt P27338)"
  LiPE: 1.09
- record.smiles: "COc1ccc(-c2cc3cc(C)ccc3oc2=O)cc1Br"
  subject.of.test: "MAO-B (Homo sapiens, UniProt P27338)"
  LiPE: 5.05
- record.smiles: "COc1ccc(-c2cc3cc(C)cc(Br)c3oc2=O)cc1"
  subject.of.test: "MAO-B (Homo sapiens, UniProt P27338)"
  LiPE: 1.42
- record.smiles: "COc1cc(OC)c(Br)c(-c2cc3cc(C)ccc3oc2=O)c1"
  subject.of.test: "MAO-B (Homo sapiens, UniProt P27338)"
  LiPE: 0.20
- record.smiles: "Cc1ccc2oc(=O)c(-c3cccc(O)c3)cc2c1"
  subject.of.test: "MAO-B (Homo sapiens, UniProt P27338)"
  LiPE: 3.44
- record.smiles: "Cc1cc(Br)c2oc(=O)c(-c3ccccc3)cc2c1"
  subject.of.test: "MAO-B (Homo sapiens, UniProt P27338)"
  LiPE: 0.95
- record.smiles: "O=c1oc2ccccc2cc1-c1ccccc1"
  subject.of.test: "MAO-B (Homo sapiens, UniProt P27338)"
  LiPE: 1.47
- record.smiles: "Cc1ccc2oc(=O)c(-c3ccc(O)cc3)cc2c1"
  subject.of.test: "MAO-B (Homo sapiens, UniProt P27338)"
  LiPE: 4.06
- record.smiles: "COc1cc(-c2cc3cc(C)ccc3oc2=O)cc(OC)c1OC"
  subject.of.test: "MAO-B (Homo sapiens, UniProt P27338)"
  LiPE: 3.18

Data origin, for the record: paper PMC5840146
